Provenance of the data: paper PMC8807947

The following are reported IC50 results, target or system COX-2 (Ovis aries, UniProt P79208).
# unit: nM | format: bare number

// query Return reported IC50; argument: `CCOC(=O)c1ccc(/N=N/c2ccc(O)c(C3c4c([nH]c(=S)[nH]c4=O)Nc4[nH]c(=S)[nH]c(=O)c43)c2)cc1`
// result 950

// query Try `CCOC(=O)c1ccc(/N=N/c2cc(C3c4c([nH]c(=S)[nH]c4=O)Nc4[nH]c(=S)[nH]c(=O)c43)c(OC)cc2OC)cc1` next.
// result 2430

// query Try `O=c1[nH]c(=S)[nH]c2c1C(c1cc(/N=N/c3ccc(-c4nc5ccccc5s4)cc3)ccc1O)c1c([nH]c(=S)[nH]c1=O)N2` next.
// result 690

----------
Kindly state Ulcer Index for each of the entries shown.
- Test system: rats
- test.details: Gastric ulcerogenic liability in rats

// query Any idea what Ulcer Index came out for CCOC(=O)c1ccc(/N=N/c2cc(C3c4c([nH]c(=S)[nH]c4=O)Nc4[nH]c(=S)[nH]c(=O)c43)c(OC)cc2OC)cc1 [IIIh] on rats?
// result 5.25 ± 0.13

// query Try Cc1ccc(-c2cc(C(F)(F)F)nn2-c2ccc(S(N)(=O)=O)cc2)cc1 [Celecoxib, reference compound] next.
// result 3.00 ± 0.09

// query Try CCOC(=O)c1ccc(/N=N/c2ccc(O)c(C3c4c([nH]c(=S)[nH]c4=O)Nc4[nH]c(=S)[nH]c(=O)c43)c2)cc1 [IIIf] next.
// result 3.75 ± 0.11

// query Try COc1ccc2c(c1)c(CC(=O)O)c(C)n2C(=O)c1ccc(Cl)cc1 [Indomethacin, reference compound] next.
// result 22.5 ± 0.21

----------
Kindly state Relative Ulcerogenicity to Celecoxib for each of the entries shown.
- Test system: rats
- test.details: Gastric ulcerogenic liability in rats
Lab note: jot the number down without any unit.

// query Return reported Relative Ulcerogenicity to Celecoxib; argument: CCOC(=O)c1ccc(/N=N/c2ccc(O)c(C3c4c([nH]c(=S)[nH]c4=O)Nc4[nH]c(=S)[nH]c(=O)c43)c2)cc1 [IIIf]
// result 1.25

// query Try Cc1ccc(-c2cc(C(F)(F)F)nn2-c2ccc(S(N)(=O)=O)cc2)cc1 [Celecoxib, reference compound] next.
// result 1

// query Try CCOC(=O)c1ccc(/N=N/c2cc(C3c4c([nH]c(=S)[nH]c4=O)Nc4[nH]c(=S)[nH]c(=O)c43)c(OC)cc2OC)cc1 [IIIh] next.
// result 1.75

// query Try COc1ccc2c(c1)c(CC(=O)O)c(C)n2C(=O)c1ccc(Cl)cc1 [Indomethacin, reference compound] next.
// result 7.5

----------
- System: rats
- test.details: Gastric ulcerogenic liability in rats
recorded.endpoint: Ulcer Number
Lab note: jot the number down without any unit.

// query Return reported Ulcer Number; argument: Cc1ccc(-c2cc(C(F)(F)F)nn2-c2ccc(S(N)(=O)=O)cc2)cc1 [Celecoxib, reference compound]
// result 3.25

// query Try COc1ccc2c(c1)c(CC(=O)O)c(C)n2C(=O)c1ccc(Cl)cc1 [Indomethacin, reference compound] next.
// result 14.25

// query Try `CCOC(=O)c1ccc(/N=N/c2ccc(O)c(C3c4c([nH]c(=S)[nH]c4=O)Nc4[nH]c(=S)[nH]c(=O)c43)c2)cc1` next.
// result 3.75

// query Try `CCOC(=O)c1ccc(/N=N/c2cc(C3c4c([nH]c(=S)[nH]c4=O)Nc4[nH]c(=S)[nH]c(=O)c43)c(OC)cc2OC)cc1` next.
// result 6.50
